SYSTEM NAME: Adenosine A2A receptor (Homo sapiens, UniProt P29274)
Sequence (P29274 whole entry): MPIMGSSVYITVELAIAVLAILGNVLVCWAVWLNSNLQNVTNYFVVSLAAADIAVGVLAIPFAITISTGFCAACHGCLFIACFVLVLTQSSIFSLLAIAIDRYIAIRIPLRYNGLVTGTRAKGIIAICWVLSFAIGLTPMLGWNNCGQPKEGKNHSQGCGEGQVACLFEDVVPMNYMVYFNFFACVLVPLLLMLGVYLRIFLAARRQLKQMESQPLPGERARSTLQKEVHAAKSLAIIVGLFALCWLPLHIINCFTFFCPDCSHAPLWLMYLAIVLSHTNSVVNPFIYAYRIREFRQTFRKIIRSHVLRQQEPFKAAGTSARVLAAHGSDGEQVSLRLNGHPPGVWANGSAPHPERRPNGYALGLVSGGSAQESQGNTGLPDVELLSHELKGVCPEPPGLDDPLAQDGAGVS
EXPERIMENT NOTES: cAMP assay in 293A cells stably expressing the adenosine A2A receptor (CGS21680 stimulation, HTRF)
Assay type: cell-based
Design: expressed in transfected cells; host or cells: 293A cells (Invitrogen, Cat# R705-07) infected with A2A-expressing lentivirus (custom packaged by Biosettia), puromycin selected
REPORTED CONDITIONS: 293A-A2AR cells, 0.1% BSA, 8 nM CGS; values separated by / are repeat determinations; read-out: cAMP (nM) 0.1% BSA, 8 nM CGS

{"MOLECULE": "Cc1cc(-c2c(OCCN(C)c3cccc(OCCO)n3)nc(N)nc2-c2ccc(F)cc2)cc(C(F)F)n1 [Example 154]", "SYSTEM NAME": "Adenosine A2A receptor (Homo sapiens, UniProt P29274)", "ENDPOINT UNIT": "nM", "IC50": 1.3}
{"MOLECULE": "Cc1cc(-c2c(OCCN(C)c3ccc(C#N)cn3)nc(N)nc2-c2ccc(F)cc2)cc(C(F)F)n1 [Example 156]", "SYSTEM NAME": "Adenosine A2A receptor (Homo sapiens, UniProt P29274)", "ENDPOINT UNIT": "nM", "IC50": 57}
{"MOLECULE": "Cc1cc(-c2c(OCc3cccc(CO[C@H]4CCOC4)n3)nc(N)nc2-c2ccc(C)o2)cc(C(F)(F)F)n1 [Example 7]", "SYSTEM NAME": "Adenosine A2A receptor (Homo sapiens, UniProt P29274)", "ENDPOINT UNIT": "nM", "IC50": 380}
